tested on: GDP-bound KRAS wild-type protein (Homo sapiens, UniProt P01116)
Sequence (P01116 whole entry): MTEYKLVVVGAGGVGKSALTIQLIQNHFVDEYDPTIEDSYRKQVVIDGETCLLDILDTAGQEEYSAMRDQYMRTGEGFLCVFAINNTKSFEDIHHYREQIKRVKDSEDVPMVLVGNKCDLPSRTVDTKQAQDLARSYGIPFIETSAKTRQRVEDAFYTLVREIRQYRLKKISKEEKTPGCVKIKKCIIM
test summary: Binding to KRAS by surface plasmon resonance (SPR), Single Cycle Kinetics
condition description: SPR, Single Cycle Kinetics, GDP-bound KRAS wild-type protein; read-out: KRAS KD
measure: Kd (nM)
Just the number please, in nM, no unit attached.

| chemical string | tested on | unit of measurement | Kd |
| --- | --- | --- | --- |
| CCO[C@@H]1C[C@H]2C(=O)NC3(CCCC3)C(=O)N(C)[C@@H](C3CCCC3)C(=O)N(C)[C@H](C(=O)N(C)C)CC(=O)N(C)[C@@H](CC)C(=O)N[C@@H]([C@@H](C)CC)C(=O)N(C)CC(=O)N(C)[C@H]3CC(C)=CCN(C3=O)[C@@H](Cc3ccc(C(F)(F)F)cc3)C(=O)N(C)CC(=O)N[C@@H](CCc3cc(F)c(C(F)(F)F)c(F)c3)C(=O)N2C1 | GDP-bound KRAS wild-type protein (Homo sapiens, UniProt P01116) | nM | 0.75 |

# ---- query molecule ----
Q: # query: Kd of entry `CC[C@H](C)[C@@H]1NC(=O)[C@H](CC(C)C)N(C)C(=O)C[C@@H](C(=O)N2CCOCC2)N(C)C(=O)[C@H](C2CCCC2)N(C)C(=O)C2(CCC2)NC(=O)[C@@H]2[C@@H](OC)CCN2C(=O)[C@H](CCc2cc(F)c(C(F)(F)F)c(F)c2)NC(=O)CN(C)C(=O)[C@H](Cc2ccc(C(F)(F)F)cc2)N2CCCC[C@@H](C2=O)N(C)C(=O)CN(C)C1=O`
Ans: 0.066

====

tested on: GDP-bound KRAS wild-type protein (Homo sapiens, UniProt P01116)
test summary: Binding to KRAS by surface plasmon resonance (SPR), Single Cycle Kinetics
condition description: SPR, Single Cycle Kinetics, 1:1 binding model; GDP-bound KRAS wild-type protein; read-out: KRAS KD
Doc: threshold 0.1 nM (exclusive). Items with Kd beneath it return Condition met; others return Condition not met.

Record excerpt, results attached:
| compound | assigned class |
| --- | --- |
| CC[C@H](C)[C@@H]1NC(=O)[C@H](CC2CC2)N(C)C(=O)C[C@@H](C(=O)N2CCCC2)N(C)C(=O)[C@H](C2CCCC2)N(C)C(=O)C2(CCCC2)NC(=O)[C@@H]2C[C@@H](F)CN2C(=O)[C@H](CCc2cc(F)c(C(F)(F)F)c(F)c2)NC(=O)CN(C)C(=O)[C@H](Cc2ccc(C(F)(F)F)cc2)N2CC/C=C\C[C@@H](C2=O)N(C)C(=O)CN(C)C1=O [PP1503] | Condition not met |
| CCO[C@@H]1C[C@H]2C(=O)NC3(CCC3)C(=O)N(C)[C@@H](C(CC)CC)C(=O)N(C)[C@H](C(=O)N(C)C)CC(=O)N(C)[C@@H](COC)C(=O)N[C@@H]([C@@H](C)CC)C(=O)N(C)CC(=O)N(C)[C@H]3C/C=C\CCN(C3=O)[C@@H](Cc3ccc(C(F)(F)F)cc3)C(=O)N(C)CC(=O)N[C@@H](CCc3ccc4sccc4c3)C(=O)N2C1 [PP1229] | Condition not met |
| CCO[C@@H]1C[C@H]2C(=O)NC3(CC(C)(C)C3)C(=O)N(C)[C@@H](C3CCCC3)C(=O)N(C)[C@H](C(=O)N(C)C)CC(=O)N(C)[C@@H](CC)C(=O)N[C@@H]([C@@H](C)CC)C(=O)N(C)CC(=O)N(C)[C@H]3C/C=C\CCN(C3=O)[C@@H](Cc3ccc(C(F)(F)F)cc3)C(=O)N(C)CC(=O)N[C@@H](CCc3ccc(C(F)(F)F)c(OC)c3)C(=O)N2C1 [PP1559] | Condition met |
| CC[C@H](C)[C@@H]1NC(=O)[C@H](CC2CC2)N(C)C(=O)C[C@@H](C(=O)N2CCOCC2)N(C)C(=O)[C@H](C2CCCC2)N(C)C(=O)C2(CCC2)NC(=O)[C@@H]2CCCN2C(=O)[C@H](CCc2ccc(C(F)(F)F)c(Cl)c2)NC(=O)CN(C)C(=O)[C@H](Cc2ccc(C(F)(F)F)cc2)N2C[C@H](C)CC[C@@H](C2=O)N(C)C(=O)CN(C)C1=O [PP1344] | Condition not met |

Now consider a different compound.
Q: # TODO verify Kd < 0.1 nM strictly for this compound: CCO[C@@H]1C[C@H]2C(=O)NC3(CCC3)C(=O)N(C)[C@@H](C3CCCC3)C(=O)N(C)[C@H](C(=O)N3CCOCC3)CC(=O)N(C)[C@@H](C)C(=O)N[C@@H]([C@@H](C)CC)C(=O)N(C)CC(=O)N(C)[C@H]3C/C=C\CCN(C3=O)[C@@H](Cc3ccc(C(F)(F)F)cc3)C(=O)N(C)CC(=O)N[C@@H](CCc3cc(F)c(C(F)(F)F)c(F)c3)C(=O)N2C1 [PP1284]
Ans: Condition not met

The origin of these recorded values is patent US20240158446A1.
